// provenance: the supplement of paper PMC6607015

System: HeLa MZ
Assay: filipin (cholesterol) integrated intensity within LBPA endosomes, Z-score; higher = more cholesterol in LBPA endosomes
Settings: compound concentration in added solution (µM; 5 µl added to 20 µl cells): 10; 18 h
Structures can show the parent of a compound that is named as a salt.
endpoint.name: filipin (z-score)
Simply state the number, no unit and no words.

For record CC(=O)SCC(Cc1ccccc1)C(=O)NCC(=O)OCc1ccccc1 (centres undefined) [Racecadotril] the listed filipin (z-score) is -0.468

For record Oc1c(Cl)cc(Cl)c2cccnc12 [Chloroxine] the listed filipin (z-score) is -0.803

For record Cc1ccc(S(=O)(=O)NC(=O)NN2CCCCCC2)cc1 [Tolazamide] the listed filipin (z-score) is -0.672

For record O=S(=O)(O)CCS [Mesna] the listed filipin (z-score) is -0.55

For record Nc1cc(-c2ccncc2)c[nH]c1=O [Amrinone] the listed filipin (z-score) is -0.541

For record CCOc1nc2cccc(C(=O)O)c2n1Cc1ccc(-c2ccccc2-c2nnn[nH]2)cc1 [Candesartan] the listed filipin (z-score) is -0.218

For record CN1CCN(CCCN2c3ccccc3Sc3ccc(S(=O)(=O)N(C)C)cc32)CC1 [Thioproperazine dimesylate] the listed filipin (z-score) is 2.33

For record Oc1ncnc2[nH]ncc12 [Allopurinol] the listed filipin (z-score) is -0.506

For record CN(C)C(=N)NC(=N)N [Metformin hydrochloride] the listed filipin (z-score) is -0.498

For record CCCCNc1c(C(=O)OCC)c(C)nc2c1cnn2CC [Tracazolate hydrochloride] the listed filipin (z-score) is 0.287

For record CC(=O)OCC(=O)[C@@]1(O)CC[C@H]2[C@@H]3CCC4=CC(=O)CC[C@]4(C)[C@@]3(F)[C@@H](O)C[C@@]21C [Fludrocortisone acetate] the listed filipin (z-score) is -0.564

For record CCCCC(CC)CN1CN(CC(CC)CCCC)CC(C)(N)C1 (centres undefined) [Hexetidine] the listed filipin (z-score) is -0.116

For record CN1C(=O)CC(c2ccccc2)C1=O (centres undefined) [Phensuximide] the listed filipin (z-score) is -0.653

For record CC(=O)[C@@]1(O)CC[C@H]2[C@@H]3C[C@H](C)C4=CC(=O)C=C[C@]4(C)[C@@]3(F)[C@@H](O)C[C@@]21C [Fluorometholone] the listed filipin (z-score) is -0.522

For record CN(C)CCC=C1c2ccccc2CCc2ccccc21 [Amitryptiline hydrochloride] the listed filipin (z-score) is 1.81

For record OC(CCN1CCCCC1)(c1ccccc1)c1ccccc1 [Pridinol methanesulfonate salt] the listed filipin (z-score) is -0.0603

For record OCCN1CCN(CCCN2c3ccccc3Sc3ccc(Cl)cc32)CC1 [Perphenazine] the listed filipin (z-score) is 2.73

For record COC1=CC(=O)C[C@@H](C)[C@]12Oc1c(Cl)c(OC)cc(OC)c1C2=O [Griseofulvin] the listed filipin (z-score) is -0.516

For record O=C(O)COC(=O)Cc1ccccc1Nc1c(Cl)cccc1Cl [Aceclofenac] the listed filipin (z-score) is -0.402

----------
System: A431
Experiment: whole-cell filipin (free cholesterol) integrated intensity, Z-score; higher = more cholesterol staining
Conditions: compound concentration in added solution (µM; 5 µl added to 20 µl cells): 10; 18 h
Structures can show the parent of a compound that is named as a salt.
Hi there, I'd appreciate the recorded whole-cell filipin (z-score) for every entry that follows.
Simply state the number, no unit and no words.

Measured whole-cell filipin (z-score) for this entry CC1COc2c(N3CCN(C)CC3)c(F)cc3c(=O)c(C(=O)O)cn1c23 (centres undefined) on A431: -0.939

Measured whole-cell filipin (z-score) for this entry CC(c1cc2ccccc2s1)N(O)C(N)=O (centres undefined) on A431: -0.358

Measured whole-cell filipin (z-score) for this entry COc1ccc(C(=O)c2ccccc2O)c(O)c1 on A431: -0.27

Measured whole-cell filipin (z-score) for this entry Cn1nnc2c(C(N)=O)ncn2c1=O [Temozolomide] on A431: -0.454

Measured whole-cell filipin (z-score) for this entry Clc1ccc(C(Cn2ccnc2)OCc2c(Cl)cccc2Cl)c(Cl)c1 (centres undefined) on A431: -0.00171

Measured whole-cell filipin (z-score) for this entry Nc1nc(N)nc(-c2cc(Cl)ccc2Cl)n1 [Irsogladine maleate] on A431: -0.0416

Measured whole-cell filipin (z-score) for this entry C=CC1=C(C(=O)O)N2C(=O)[C@@H](NC(=O)/C(=N\O)c3csc(N)n3)[C@H]2SC1 on A431: -0.315

Measured whole-cell filipin (z-score) for this entry CO[C@@H]1[C@@H](OC(N)=O)[C@@H](O)[C@H](Oc2ccc3c(O)c(NC(=O)c4ccc(O)c(CC=C(C)C)c4)c(=O)oc3c2C)OC1(C)C [Novobiocin sodium salt] on A431: -0.352

Measured whole-cell filipin (z-score) for this entry Nc1cc(C(Cl)=C(Cl)Cl)c(S(N)(=O)=O)cc1S(N)(=O)=O on A431: -0.73
